Source of measurements: patent US20260263470A1

- Assay Details: Systemic exposure in DELTA 2: plasma concentrations of delgocitinib after cream application (LC/MS)
- Format: in vivo, human
- Measurement Setup: human, plasma, topical, 20 mg/g; given as Delta 2; day 8; read-out: area under the concentration-curve from time 0 to 12 hours (AUC0-12), geometric mean
- Description: Data are reported as geometric means.
Reported Property: AUC(0-t) (ng·h/mL)
One number for each entry, in ng·h/mL.

Please report AUC(0-t) for the following compound: C[C@H]1CN(C(=O)CC#N)[C@]12CCN(c1ncnc3[nH]ccc13)C2
3.7

---

- Assay Details: Half-life following repeated topical administration of delgocitinib cream
- Format: in vivo
- Measurement Setup: human, plasma, 20 mg/g
Reported Property: half-life (h)
One number for each entry, in h.

Please report half-life for the following compound: C[C@H]1CN(C(=O)CC#N)[C@]12CCN(c1ncnc3[nH]ccc13)C2
20.3
